Entry source: patent US20250188153A1

Target: hMPV B2 F protein (his-tagged, not trypsin treated) (human metapneumovirus)
Assay: ELISA on coated recombinant protein, OD 405 nm
Threshold 0.4 µg/mL: EC50 strictly smaller gives met, otherwise not met.

Is the reported EC50 for MPV467 (antibody, V domains shown) VH: EVQLVESGGGVVRPGTSLRVSCAAFDFNFRDYGMHWVRQAPGKGLEWVAGIWYDGSNKDYADSVKGRFTISRDNSQNTLYLQMNSLRVEDTAVYYCARDPRTHREGALSHFDSWGQGTLVTVSS VL: PNELTQDPAVSVALGQTVRITCQGDSLRNYFAGWYQQKPGQAPLLVLYGENIRPSGIPDRFSGSSSGNTVSLTITGAQAEDEADYYCNSRDNSGNHWVFGGGTRLTVL strictly below 0.4 µg/mL?
met

Continue with MPV456 (antibody, V domains shown) VH: QVQLQESGPGVVKPSGTLSLTCGVSGGSISSSYWWSWVRQPPGKGLEWIGEIYHSGSTNYNPSLKRRVTISVDKSKNQFSLKVTSVTAADTAVYYCARGPIQYYDILTEERVGYCDYWGQGTLVTVSS VL: TLSASVGDRVTITCRASQSISSWLAWFQQKPGKAPKLLIYKTSSLESGVPSRFSGSGSGTEFTLTISSLQPDDFATYYCQEYNSYSRTFGQGTKVEIK
not met

Continue with MPV482 (antibody, V domains shown) VH: EVQLVQSGGGVVQPGRSLRLSCAASGFTFSSFAMHWVRQAPGKGLEWVALISDDGNNKYHADSVKGRFTISRDSSKNTLYLQMNSLRGEDTAVYYCARDGSVVGAAAHCDHWGQGTLVTVSS VL: SYELTQPPSVSVSPGQTARITCSGDALPNQCAYWYQQKPGLAPVLLIYKDKERPSGIPERFSGSISGTTVTLTISGVQAEDEADYYCQSSDSSSTVVFGGGTKLTVL
met

Continue with MPV486 (antibody, V domains shown) VH: EVQLVESGGHLVQSGGSLRLSCAASGFTFSNYILNWVRQAPGKGLEWISYITGGSSAIYYADSVKGRFTISRDDAKNSLYLQMNNLRAEDTAVYYCARSHGYDSSGYYYYFAMDVWGQGTTVTVSS VL: QSVLTQPPSASGTPGQRVTISCSGSNSNIESNTVNWYQQIPGTAPKLLIYSDNRRPSGVPDRFSGSKSGTSASLAISGLQSEDEADYYCAAWDDSLIGYVFGTGTKVTV
met

Continue with MPV481 (antibody, V domains shown) VH: EVQLVQSGGGLVKPGGSLRLSCAASGLPFNNAWMNWVRQAPGKGLEWVGRIKSKIDGGTTEYAAPVKGRFTISRDDSENTLYLQMNSLRTEDTAVYYCTTEYYALLSGNYSDCWGQGTLVTVSS VL: DIVMTQSPFSLSLSPGERATLSCRASQSIKRAYLGWYQQKPGQAPRLLIYGASNRATGIPDRFSGSGSGTDFTLTISRLEPEDFAVYYCQQYGDSPGGSFGQGTKLEIR
met

Continue with MPV454 (antibody, V domains shown) VH: EVQLVESGGGLVKPGGSLRLSCSTSGFVFSSYAMHWVRQAPGKGLEHVSAISSTGDNTHYADSVKGRFTISRDNSRGRLYLQMTSVRPEDAALYYCVKDLYSGRFYYFLDDWGQGTRIIVSS VL: DIQVTQSPSSLSASVGDRVTISCRASQNISNYLNWFQQRPGKAPKLLIYVASTLQSGAPSRFSGSGSGTDFTLTITDLQPEDFATYYCQQSYNTPPITFGQGTRLEIK
not met

Continue with MPV487 (antibody, V domains shown) VH: EVQLLESGGGLVQPGRSLRLSCTASGFTFDDYAMHWVRQLPGKGLEWVSGISWNSDNIGYADSVKGRFTISRDNGKNSLYLQMNSLRAEDTAFYYCAKDVRIDYDLLIGHIDYWGPGTLVTVSS VL: TQSPVTLSLSPGERATLSCRASQSFGGYCAWYQQKPGQSPRLLIYDASNRATGVPARFSGSGSGTDFTLTISSLEPEDSAVYFCQQRGNWPIFGQGTRLEI
met
